# target.entity: HRas^G12V (Homo sapiens (Human), UniProt P01112, G12V)
# Sequence (P01112 1-166 G12V): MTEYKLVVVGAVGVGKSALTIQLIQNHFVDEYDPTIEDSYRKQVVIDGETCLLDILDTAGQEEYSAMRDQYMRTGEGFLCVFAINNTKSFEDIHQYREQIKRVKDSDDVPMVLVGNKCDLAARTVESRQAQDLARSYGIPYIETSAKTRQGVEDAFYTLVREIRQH
# assay.explanation: 19F DLB (ligand-observed 19F NMR) score
# Format: binding
# Parameters: scale not given here
measure: 19F DLB Score

// worked examples, 19F DLB Score included
O=C(O)[C@@H]1COCCN1C(=O)Cc1c[nH]c2cc(F)ccc12; 1.24
CCOC(=O)C(Cc1c[nH]cn1)NC(=O)Cc1c[nH]c2cc(F)ccc12 (centres unmarked); 1.14
CC(=O)N[C@H]1CCN(C(=O)Cc2c[nH]c3cc(F)ccc23)C1; 1.86
O=C(C1CC1)C1CN(C(=O)Cc2c[nH]c3cc(F)ccc23)C1; 1.89

# input for lookup
Req: Fill in: 19F DLB Score of COCC1CN(C(=O)Cc2c[nH]c3cc(F)ccc23)C1 is ___
Resp: 1.77

###

# target.entity: HRas^G12V (Homo sapiens (Human), UniProt P01112, G12V)
# assay.explanation: 19F DLB (ligand-observed 19F NMR) score
# Assay type: binding
# Design: scale not given here
measure: 19F DLB Score
One number for each entry.

// worked examples, 19F DLB Score included
CN1CCN(CCNC(=O)Cc2c[nH]c3cc(F)ccc23)CC1 [Compound 10020]; 1.62
Fc1ccc2c(CNc3ccccc3)c[nH]c2c1 [Compound 10052]; 4.75
CN(C)CC(=O)Nc1cccc(NC(=O)Cc2c[nH]c3cc(F)ccc23)c1 [compound 10097]; 3.84
O=C1C[C@H](c2c[nH]c3cc(F)ccc23)C(=O)N1 (single isomer, unassigned) [Compound 11039]; 3.59
O=C(O)[C@H]1COCCN1C(=O)Cc1c[nH]c2cc(F)ccc12 [Compound 10152]; 1.03

// batch mode: one 19F DLB Score value per listed entry
1. O=C(NCCc1c[nH]c2cc(F)ccc12)[C@H]1CCCO1 [Compound 10013]
2. CC(C)COC1CCN(C(=O)Cc2c[nH]c3cc(F)ccc23)CC1 [Compound 10111]
3. CCN(CC)CC(=O)NCCc1c[nH]c2cc(F)ccc12 [Compound 10064]

Resp:
2.09
2.23
1.16

// batch mode: one 19F DLB Score value per listed entry
1. O=C(C1CCCNC1)N1CCC(c2c[nH]c3cc(F)ccc23)C1 (stereo not drawn) [Compound 11037]
2. CS(=O)(=O)NCCc1c[nH]c2cc(F)ccc12 [Compound 10006, reference compound]
3. O=C(Cc1c[nH]c2cc(F)ccc12)NC1CCOCC1 [Compound 10027]
4. O=C(Cc1c[nH]c2cc(F)ccc12)N1CCO[C@@H](CO)C1 [Compound 10147]
5. O=C(C1CCNC1)N1CCC(c2c[nH]c3cc(F)ccc23)CC1 (stereo not drawn) [Compound 11046]

Resp:
1: 2.12; 2: 3.24; 3: 1.42; 4: 2.3; 5: 3.58

// batch mode: one 19F DLB Score value per listed entry
1. CN1CCC(NC(=O)Cc2c[nH]c3cc(F)ccc23)C(C(=O)O)C1 (stereo not drawn) [Compound 10117]
2. O=C(Cc1c[nH]c2cc(F)ccc12)N1CCO[C@H](CO)C1 [Compound 10148]
3. CN1CCN(C(=O)Cc2c[nH]c3cc(F)ccc23)CC1 [Compound 10065]
4. CN(C)Cc1ccc(NC(=O)C(C#N)c2c[nH]c3cc(F)ccc23)cc1 (stereo not drawn) [Compound 11030]

Resp:
1: 1.54; 2: 1.87; 3: 2.88; 4: 2.9
